Listed below: pKi values for each entry.
Target: Kappa-type opioid receptor (Homo sapiens)
pKi: −log10 of the molar value.
readoutName: pKi

smi: Oc1ccc2c3c1O[C@H]1c4ncc(-c5ccncn5)cc4C[C@@]4(OCCCc5ccccc5)[C@@H](C2)N(CC2CC2)CC[C@]314
reading: 7.51
//
smi: Oc1ccc2c3c1O[C@H]1c4ncc(-c5ccccc5)cc4C[C@@]4(OCCCC5CCOCC5)[C@@H](C2)N(CC2CC2)CC[C@]314
reading: 7.61
//
smi: Oc1ccc2c3c1O[C@H]1c4ncc(-c5ccncc5)cc4C[C@@]4(OCCCc5ccccc5)[C@@H](C2)N(CC2CC2)CC[C@]314
reading: 7.80
//
smi: Oc1ccc2c3c1O[C@H]1c4ncc(-c5ccccc5)cc4C[C@@]4(OCCCc5ccncc5)[C@@H](C2)N(CC2CC2)CC[C@]314
reading: 7.66
//
smi: Oc1ccc2c3c1O[C@H]1c4ncc(-c5ccccc5)cc4C[C@@]4(OCCCc5ccccc5)[C@@H](C2)N(CC2CC2)CC[C@]314
reading: 6.88
//
smi: Oc1ccc2c3c1O[C@H]1c4ncc(-c5ccc(Cl)cc5)cc4C[C@@]4(OCCCc5ccncc5)[C@@H](C2)N(CC2CC2)CC[C@]314
reading: 7.99

----------
Molecular target: Mu-type opioid receptor (Homo sapiens)
Assay: biochemical
pEC50: −log10 of the molar value.
Listed below: pEC50 values for each entry.

smi: Oc1cccc(-c2cnc3c(c2)C[C@@]2(OCCCc4ccccc4)[C@H]4Cc5ccc(O)c6c5[C@@]2(CCN4CC2CC2)[C@H]3O6)c1
resultComparator: =
pEC50: 8.95

smi: Oc1ccc2c3c1O[C@H]1c4ncc(-c5cccnc5)cc4C[C@@]4(OCCCc5ccccc5)[C@@H](C2)N(CC2CC2)CC[C@]314
resultComparator: <
pEC50: 5.48

smi: CN(C)c1ccccc1-c1cnc2c(c1)C[C@@]1(OCCCc3ccccc3)[C@H]3Cc4ccc(O)c5c4[C@@]1(CCN3CC1CC1)[C@H]2O5
resultComparator: =
pEC50: 6.63

smi: CN(C)Cc1ccccc1-c1cnc2c(c1)C[C@@]1(OCCCc3ccccc3)[C@H]3Cc4ccc(O)c5c4[C@@]1(CCN3CC1CC1)[C@H]2O5
resultComparator: =
pEC50: 7.54

smi: COc1ccccc1-c1cnc2c(c1)C[C@@]1(OCCCc3ccccc3)[C@H]3Cc4ccc(O)c5c4[C@@]1(CCN3CC1CC1)[C@H]2O5
resultComparator: =
pEC50: 8.14

smi: Cn1cc(-c2cnc3c(c2)C[C@@]2(OCCCc4ccccc4)[C@H]4Cc5ccc(O)c6c5[C@@]2(CCN4CC2CC2)[C@H]3O6)cn1
resultComparator: =
pEC50: 6.18

smi: Cc1nocc1-c1cnc2c(c1)C[C@@]1(OCCCc3ccccc3)[C@H]3Cc4ccc(O)c5c4[C@@]1(CCN3CC1CC1)[C@H]2O5
resultComparator: =
pEC50: 8.46

smi: CN(C)c1ccc(-c2cnc3c(c2)C[C@@]2(OCCCc4ccccc4)[C@H]4Cc5ccc(O)c6c5[C@@]2(CCN4CC2CC2)[C@H]3O6)cc1
resultComparator: =
pEC50: 8.68

smi: Oc1ccc2c3c1O[C@H]1c4ncc(-n5cccc5)cc4C[C@@]4(OCCCc5ccccc5)[C@@H](C2)N(CC2CC2)CC[C@]314
resultComparator: =
pEC50: 8.79

smi: Cc1ccc(-c2cnc3c(c2)C[C@@]2(OCCCc4ccccc4)[C@H]4Cc5ccc(O)c6c5[C@@]2(CCN4CC2CC2)[C@H]3O6)cc1
resultComparator: =
pEC50: 8.64

smi: COc1cc(-c2cnc3c(c2)C[C@@]2(OCCCc4ccccc4)[C@H]4Cc5ccc(O)c6c5[C@@]2(CCN4CC2CC2)[C@H]3O6)ccn1
resultComparator: =
pEC50: 8.57

smi: Oc1ccc2c3c1O[C@H]1c4ncc(-c5ccccc5)cc4C[C@@]4(OCCCCc5ccccc5)[C@@H](C2)N(CC2CC2)CC[C@]314
resultComparator: =
pEC50: 7.61

smi: Cc1nnc(-c2cnc3c(c2)C[C@@]2(OCCCc4ccccc4)[C@H]4Cc5ccc(O)c6c5[C@@]2(CCN4CC2CC2)[C@H]3O6)o1
resultComparator: =
pEC50: 7.76

----------
Biological target: Delta-type opioid receptor (Homo sapiens)
Assay: Antagonist activity at human delta opioid receptor expressed in CHO cell membranes assessed as reduction in SNC80-induced [35S]GTPgammaS binding preincubated for 5 mins followed by SNC80 addition and measured after 1 hr
Would you mind classing the entries by IC50? Ranges: 1 (below 1 nM), 2 (1 nM to below 20 nM), 3 (20 nM or more)

smi: Oc1ccc2c3c1O[C@H]1c4ncc(-c5cnccn5)cc4C[C@@]4(OCCCc5ccccc5)[C@@H](C2)N(CC2CC2)CC[C@]314
categoryLabel: 2
//
smi: Oc1ccc2c3c1O[C@H]1c4ncc(-c5cccnc5)cc4C[C@@]4(OCCCc5ccccc5)[C@@H](C2)N(CC2CC2)CC[C@]314
categoryLabel: 1
//
smi: COc1cccc(-c2cnc3c(c2)C[C@@]2(OCCCc4ccccc4)[C@H]4Cc5ccc(O)c6c5[C@@]2(CCN4CC2CC2)[C@H]3O6)c1
categoryLabel: 2
//
smi: Cc1cccc(-c2cnc3c(c2)C[C@@]2(OCCCc4ccccc4)[C@H]4Cc5ccc(O)c6c5[C@@]2(CCN4CC2CC2)[C@H]3O6)c1
categoryLabel: 1
//
smi: COc1ccc(-c2cnc3c(c2)C[C@@]2(OCCCc4ccccc4)[C@H]4Cc5ccc(O)c6c5[C@@]2(CCN4CC2CC2)[C@H]3O6)cc1
categoryLabel: 3
//
smi: Oc1ccc2c3c1O[C@H]1c4ncc(-c5ccc(F)cc5F)cc4C[C@@]4(OCCCc5ccccc5)[C@@H](C2)N(CC2CC2)CC[C@]314
categoryLabel: 2
//
smi: Oc1ccc2c3c1O[C@H]1c4ncc(-c5ccc(Cl)cc5)cc4C[C@@]4(OCCCc5ccncc5)[C@@H](C2)N(CC2CC2)CC[C@]314
categoryLabel: 2
//
smi: Oc1ccc2c3c1O[C@H]1c4ncc(-c5ccccc5)cc4C[C@@]4(OCCCc5ccccc5)[C@@H](C2)N(CC2CC2)CC[C@]314
categoryLabel: 1
//
smi: Oc1ccc2c3c1O[C@H]1c4ncc(-c5ccccc5)cc4C[C@@]4(OCCCC5CCCCC5)[C@@H](C2)N(CC2CC2)CC[C@]314
categoryLabel: 3
//
smi: Oc1ccc2c3c1O[C@H]1c4ncc(-c5ccccc5)cc4C[C@@]4(OCCCc5ccc(F)cc5)[C@@H](C2)N(CC2CC2)CC[C@]314
categoryLabel: 3

----------
Molecular target: Delta-type opioid receptor (Homo sapiens, UniProt P41143)
Assay: Antagonist activity at human delta opioid receptor expressed in CHO cell membranes assessed as reduction in SNC80-induced [35S]GTPgammaS binding preincubated for 5 mins followed by SNC80 addition and measured after 1 hr
pIC50: −log10 of the molar value.
Listed below: pIC50 values for each entry.

smi: COc1ccccc1-c1cnc2c(c1)C[C@@]1(OCCCc3ccccc3)[C@H]3Cc4ccc(O)c5c4[C@@]1(CCN3CC1CC1)[C@H]2O5
systemUnderTest: Delta-type opioid receptor (Homo sapiens, UniProt P41143)
resultComparator: =
pIC50: 9.10
--
smi: Cc1cc(F)ccc1-c1cnc2c(c1)C[C@@]1(OCCCc3ccccc3)[C@H]3Cc4ccc(O)c5c4[C@@]1(CCN3CC1CC1)[C@H]2O5
systemUnderTest: Delta-type opioid receptor (Homo sapiens, UniProt P41143)
resultComparator: =
pIC50: 7.55
--
smi: Oc1cccc(-c2cnc3c(c2)C[C@@]2(OCCCc4ccccc4)[C@H]4Cc5ccc(O)c6c5[C@@]2(CCN4CC2CC2)[C@H]3O6)c1
systemUnderTest: Delta-type opioid receptor (Homo sapiens, UniProt P41143)
resultComparator: =
pIC50: 8.89
--
smi: Cc1cc(-c2cnc3c(c2)C[C@@]2(OCCCc4ccccc4)[C@H]4Cc5ccc(O)c6c5[C@@]2(CCN4CC2CC2)[C@H]3O6)ccn1
systemUnderTest: Delta-type opioid receptor (Homo sapiens, UniProt P41143)
resultComparator: =
pIC50: 9.41
--
smi: Oc1ccc2c3c1O[C@H]1c4ncc(-c5ccncc5)cc4C[C@@]4(OCCCc5ccccc5)[C@@H](C2)N(CC2CC2)CC[C@]314
systemUnderTest: Delta-type opioid receptor (Homo sapiens, UniProt P41143)
resultComparator: =
pIC50: 7.74
--
smi: Cn1cc(-c2cnc3c(c2)C[C@@]2(OCCCc4ccccc4)[C@H]4Cc5ccc(O)c6c5[C@@]2(CCN4CC2CC2)[C@H]3O6)cn1
systemUnderTest: Delta-type opioid receptor (Homo sapiens, UniProt P41143)
resultComparator: =
pIC50: 7.71
--
smi: CN(C)c1ccc(-c2cnc3c(c2)C[C@@]2(OCCCc4ccccc4)[C@H]4Cc5ccc(O)c6c5[C@@]2(CCN4CC2CC2)[C@H]3O6)cc1
systemUnderTest: Delta-type opioid receptor (Homo sapiens, UniProt P41143)
resultComparator: =
pIC50: 8.60
--
smi: Oc1ccc2c3c1O[C@H]1c4ncc(-c5cncnc5)cc4C[C@@]4(OCCCc5ccccc5)[C@@H](C2)N(CC2CC2)CC[C@]314
systemUnderTest: Delta-type opioid receptor (Homo sapiens, UniProt P41143)
resultComparator: =
pIC50: 9.06
--
smi: Oc1ccc2c3c1O[C@H]1c4ncc(-c5ccc(Cl)cc5)cc4C[C@@]4(OCc5ccc6ccccc6n5)[C@@H](C2)N(CC2CC2)CC[C@]314
systemUnderTest: Delta-type opioid receptor (Homo sapiens, UniProt P41143)
resultComparator: =
pIC50: 7.97
--
smi: Oc1ccc2c3c1O[C@H]1c4ncc(-c5ccccc5)cc4C[C@@]4(OCCCC5CCOCC5)[C@@H](C2)N(CC2CC2)CC[C@]314
systemUnderTest: Delta-type opioid receptor (Homo sapiens, UniProt P41143)
resultComparator: >
pIC50: 9.77
--
smi: CN(C)Cc1ccccc1-c1cnc2c(c1)C[C@@]1(OCCCc3ccccc3)[C@H]3Cc4ccc(O)c5c4[C@@]1(CCN3CC1CC1)[C@H]2O5
systemUnderTest: Delta-type opioid receptor (Homo sapiens, UniProt P41143)
resultComparator: =
pIC50: 7.93
--
smi: Cc1nnc(-c2cnc3c(c2)C[C@@]2(OCCCc4ccccc4)[C@H]4Cc5ccc(O)c6c5[C@@]2(CCN4CC2CC2)[C@H]3O6)o1
systemUnderTest: Delta-type opioid receptor (Homo sapiens, UniProt P41143)
resultComparator: >
pIC50: 9.77
--
smi: Oc1ccc2c3c1O[C@H]1c4ncc(-c5ccccc5)cc4C[C@@]4(OCCCCc5ccccc5)[C@@H](C2)N(CC2CC2)CC[C@]314
systemUnderTest: Delta-type opioid receptor (Homo sapiens, UniProt P41143)
resultComparator: =
pIC50: 7.18

Source: ChEMBL document CHEMBL4627399
